system: BMDC; assay: Vaccine adjuvant activity in Balb/c mouse BMDC assessed as increase in IL-12 production at 10 uM incubated for 20 hrs by ELISA (reference value: 1.35 +/-0.1 ng/ml); format: functional
Threshold rule: Activity greater than or equal to 2 ng/mL is yes (1); below that, no (0).

CCOC(=O)c1c(C)cccc1NS(=O)(=O)c1cccc2nsnc12 | no (0)

QUERY: Entry CCOC(=O)c1c(NS(=O)(=O)c2cccc3nsnc23)sc(C)c1-c1ccccc1 : is its Activity no less than 2 ng/mL?
RESULT: no (0)

QUERY: Entry COC(=O)c1c(NS(=O)(=O)c2cccc3nsnc23)sc(C)c1C : is its Activity no less than 2 ng/mL?
RESULT: no (0)

QUERY: Entry CCOC(=O)c1c(NS(=O)(=O)c2cccc3nsnc23)sc(C)c1CC : is its Activity no less than 2 ng/mL?
RESULT: yes (1)

QUERY: Entry CCOC(=O)c1c(NS(=O)(=O)c2cccc3nsnc23)sc(-c2ccccn2)c1C : is its Activity no less than 2 ng/mL?
RESULT: no (0)

----------
Reported Activity values for a set of compounds
system: THP-1; assay: Vaccine adjuvant activity in human THP-1 cells expressing CD63-Turbo-luciferase and CD9-Emerald green fluorescent protein reporter assessed as extracellular vesicle release by measuring reporter activation at 10 uM incubated for 48 hrs by TurboLuc luciferase based chemiluminescence assay (reference value: 0%); assay type: functional
Express your answer in %, writing the number without its unit.

# count of solved cases: 3
CCOC(=O)c1c(NS(=O)(=O)c2ccc3nsnc3c2)sc(C)c1C | 0.2
CCOC(=O)c1c(NS(=O)(=O)c2cccc3nsnc23)sc(C)c1CC | 112
Cc1sc(NS(=O)(=O)c2cccc3nsnc23)c(C(=O)OC2CCCCC2)c1C | 213

QUERY: Tell me its Activity given CCOC(=O)c1c(NS(=O)(=O)c2cccc3nsnc23)sc2c1CCN(C(=O)OC(C)(C)C)C2 as the entry.
RESULT: 100.4

QUERY: Tell me its Activity given CCOC(=O)c1sc(C)c(C)c1NS(=O)(=O)c1cccc2nsnc12 as the entry.
RESULT: 154.1

QUERY: Tell me its Activity given CCOC(=O)c1c(NS(=O)(=O)c2cccc3nsnc23)sc(C)c1C as the entry.
RESULT: 100

----------
Reported Activity values for a set of compounds
system: THP-1; test: Vaccine adjuvant activity in human THP-1 cells expressing CD63-Turbo-luciferase and CD9-Emerald green fluorescent protein reporter assessed as extracellular vesicle release by measuring reporter activation at 10 uM incubated for 48 hrs by TurboLuc luciferase based chemiluminescence assay (reference value: 0%); type: functional
Express your answer in %, writing the number without its unit.

# count of solved cases: 3
CCOC(=O)c1ncsc1NS(=O)(=O)c1cccc2nsnc12 | 1.3
CCOC(=O)c1c(NS(=O)(=O)c2cccc3ncccc23)sc(C)c1C | 0
CCOC(=O)c1c(N(C)S(=O)(=O)c2cccc3nsnc23)sc(C)c1C | -2

We now examine a further compound.
QUERY: Tell me its Activity given CCOC(=O)c1c(NS(=O)(=O)c2cccc3c2NCCN3)sc(C)c1C as the entry.
RESULT: 2.7

----------
tested on: THP-1; experiment: Vaccine adjuvant activity in human THP-1 cells expressing CD63-Turbo-luciferase and CD9-Emerald green fluorescent protein reporter assessed as extracellular vesicle release by measuring reporter activation at 10 uM incubated for 48 hrs by TurboLuc luciferase based chemiluminescence assay (reference value: 0%); assay type: functional
Reported Activity values for a set of compounds
Express your answer in %, writing the number without its unit.

# count of solved cases: 4
CCOC(=O)c1c(NS(=O)(=O)c2cccc3nn[nH]c23)sc(C)c1C | -0.7
CCOC(=O)c1c(NS(=O)(=O)c2cccc3nsnc23)sc2c1CCC2 | 94.9
COC(=O)c1c(NS(=O)(=O)c2cccc3nsnc23)sc(C)c1C | 30.1
CCOC(=O)c1c(NS(=O)(=O)c2cccc3ccccc23)sc(C)c1C | 5.2

QUERY: Tell me its Activity given CCOC(=O)c1cc(C)sc1NS(=O)(=O)c1cccc2nsnc12 as the entry.
RESULT: 106.9

QUERY: Tell me its Activity given CCOC(=O)c1c(NS(=O)(=O)c2cccc3nsnc23)sc(-c2cccnc2)c1C as the entry.
RESULT: 75.3

QUERY: Tell me its Activity given CCCOC(=O)c1c(NS(=O)(=O)c2cccc3nsnc23)sc(C)c1C as the entry.
RESULT: 156.3

QUERY: Tell me its Activity given CCOC(=O)c1c(NS(=O)(=O)c2cccc3nccnc23)sc(C)c1C as the entry.
RESULT: 113.3

QUERY: Tell me its Activity given Cc1sc(NS(=O)(=O)c2cccc3nsnc23)c(C(=O)O)c1C as the entry.
RESULT: -1.3
